Test system: 293T cells
assay_info: Cell survival rate assay (CCK-8)
Type: cell-based
measurement_parameters: difference of rates
attribute_measured: cell survival rate higher than that of compound 21 (%)
# value in %; strip the unit string

CCCCCCCCC(CCCCCCCC)COC(=O)CCCCCN(CCCCCC(=O)OCC(CCCCCCCC)CCCCCCCC)CCN(C)CCO [YK-209] | 7.67

IN: Entry under review: CCCCCCCCCCCOC(=O)CCCCCN(CCCCCCCC(=O)OC(CCCCCCC)CCCCCCC)CCN(C)CCO [YK-206] . Reported cell survival rate higher than that of compound 21?
OUT: 5.55

IN: Which measured cell survival rate higher than that of compound 21 value corresponds to CCCCCCCCCCCOC(=O)CCCCCN(CCCCCCCC(=O)OCC(CCCCCCCC)CCCCCCCC)CCN(C)CCO [YK-202] ?
OUT: 7.79
